System: 233499-124-R-J3-PDC complex spheroid viability;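 also: spheroids exposed to the drug combinations for seven days; percent viability relative to DMSO vehicle control wells taken as 100%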
Assay: Anticancer human tumor 233499-124-R-J3-PDC patient-derived colon adenocarcinoma cell line growth inhibition [CLK]
Conditions: second compound 10 µM; first compound 10 µM; active compounds read low
Reported viability, T/C values follow for various compounds

compound	viability, T/C, %
Nc1ccccc1NC(=O)c1ccc(CNC(=O)OCc2cccnc2)cc1 + CNC(=O)c1ccc(Nc2nc(OC3CCCC3)c3c(-c4ccc5nc(C)oc5c4)c[nH]c3n2)c(OC)c1	0.15
CCCS(=O)(=O)Nc1ccc(F)c(C(=O)c2c[nH]c3ncc(-c4ccc(Cl)cc4)cc23)c1F + CNC(=O)c1ccc(Nc2nc(OC3CCCC3)c3c(-c4ccc5nc(C)oc5c4)c[nH]c3n2)c(OC)c1	14.6
COc1ccc([C@@H](O)c2cc(-c3ncnc4cc(N5CCOCC5)ccc34)c(F)cc2Cl)nn1 + CN1CCN(c2cc(C(=O)Nc3cc4cc(-c5cnn(C)c5)ccc4cn3)ccn2)CC1	1.14
CC1(C)CCC(CN2CCN(c3ccc(C(=O)NS(=O)(=O)c4ccc(NCC5CCOCC5)c([N+](=O)[O-])c4)c(Oc4cnc5[nH]ccc5c4)c3)CC2)=C(c2ccc(Cl)cc2)C1 + CN1CCN(c2cc(C(=O)Nc3cc4cc(-c5cnn(C)c5)ccc4cn3)ccn2)CC1	0.29
O=C(c1cc(Cc2n[nH]c(=O)c3ccccc23)ccc1F)N1CCN(C(=O)C2CC2)CC1 + CNC(=O)c1ccc(Nc2nc(OC3CCCC3)c3c(-c4ccc5nc(C)oc5c4)c[nH]c3n2)c(OC)c1	57.1
